Taken from ChEMBL document CHEMBL3286290.

Exercise: for every item that follows, state its recorded MIC.
system: Candida albicans; experiment: Antifungal activity against Candida albicans ATCC 10231 assessed as growth inhibition by M7-A6 method; format: functional
Structures can show the parent of a compound that is named as a salt.
The reply should consist of the numeric value with the unit placed after it.

COc1cc(C(=N)N)ccc1OCCN(CCOc1ccc(C(=N)N)cc1OC)S(=O)(=O)c1ccccc1: 92 µM
N=C(N)c1ccc(NCCOCCNc2ccc(C(=N)N)cc2)cc1: 5920 µM
N=C(N)c1ccc(OCCCCCOc2ccc(C(=N)N)cc2)cc1 [PENTAMIDINE HYDROCHLORIDE]: 110 µM
CCCCNC(=N)c1ccc(OCCSCCOc2ccc(C(=N)NCCCC)cc2)cc1.Cl: 3.6 µM

Q: Could you share which MIC value was measured for `Cl.N=C(NC1CCCCC1)c1ccc(OCCSCCOc2ccc(C(=N)NC3CCCCC3)cc2)cc1` ?
Ans: 3.2 µM

###

Record form. Attribute: MIC. Fill in for each entry.
tested on: Bacillus subtilis; test: Antibacterial activity against Bacillus subtilis ATCC 6633 assessed as growth inhibition by M7-A6 method; assay type: functional
Structures can show the parent of a compound that is named as a salt.
Give bare numbers, in µM.

See these solved cases before continuing.
N=C(N)c1ccc(OCCN(CCOc2ccc(C(=N)N)cc2)S(=O)(=O)c2ccccc2)cc1: 82
Cl.N=C(NC1CCCCC1)c1ccc(OCCSCCOc2ccc(C(=N)NC3CCCCC3)cc2)cc1: 12
COc1cc(C(=N)N)ccc1OCCN(CCOc1ccc(C(=N)N)cc1OC)S(=O)(=O)c1ccc(NC(C)=O)cc1: 720
Cl.c1cc(C2=NCCN2)ccc1OCCSCCOc1ccc(C2=NCCN2)cc1: 240
COc1cc(C(=N)N)cc(OC)c1OCCCCCOc1c(OC)cc(C(=N)N)cc1OC: 89
COc1cc(C(=N)N)ccc1OCCN(C)CCOc1ccc(C(=N)N)cc1OC: 810

Each molecule below has a recorded value; state its MIC.
1. COc1cc(C(=N)N)cc(OC)c1OCCN(C)CCOc1c(OC)cc(C(=N)N)cc1OC
2. CN(CCOc1ccc(C(=N)N)cc1)CCOc1ccc(C(=N)N)cc1
3. N=C(N)c1ccc(OCCCCCOc2ccc(C(=N)N)cc2)cc1 [PENTAMIDINE HYDROCHLORIDE]
4. COc1cc(C(=N)N)cc(OC)c1OCCN(CCOc1c(OC)cc(C(=N)N)cc1OC)S(=O)(=O)c1ccccc1
5. COc1cc(C(=N)N)ccc1OCCOCCOc1ccc(C(=N)N)cc1OC
6. COc1cc(C(=N)N)cc(OC)c1OCCN(CCOc1c(OC)cc(C(=N)N)cc1OC)S(=O)(=O)c1ccc(N)cc1

Ans:
1. 1520
2. 2110
3. 67
4. 70
5. 2100
6. 320

Batch of 4 molecules: report MIC for each.
1. N=C(N)c1ccc(OCCOCCOc2ccc(C(=N)N)cc2)cc1
2. N=C(N)c1ccc(NCCOCCNc2ccc(C(=N)N)cc2)cc1
3. CCCCNC(=N)c1ccc(OCCSCCOc2ccc(C(=N)NCCCC)cc2)cc1.Cl
4. Cl.N=C(N)c1ccc(SCCOCCSc2ccc(C(=N)N)cc2)cc1

Ans:
1. 550
2. 590
3. 14
4. 130

###

test system: Staphylococcus aureus; assay: Antibacterial activity against penicillin, erythromycin, amikacin, clindamycin, ciprofloxacin, methicillin-resistant Staphylococcus aureus 573/12 assessed as growth inhibition by M7-A6 method; type: functional
Structures can show the parent of a compound that is named as a salt.
Readout: MIC (µM)
Answers are plain numbers, in µM.

Hi! Can you tell me MIC for each of these compounds?
1. CCCCNC(=N)c1ccc(OCCSCCOc2ccc(C(=N)NCCCC)cc2)cc1.Cl
2. Cl.N=C(NC1CCCCC1)c1ccc(OCCSCCOc2ccc(C(=N)NC3CCCCC3)cc2)cc1
3. N=C(N)c1ccc(OCCSCCOc2ccc(C(=N)N)cc2)cc1

Ans:
[14, 12, 290]

Below is a list of compounds. For each, state its recorded MIC.
1. N=C(N)c1ccc(OCCCCCOc2ccc(C(=N)N)cc2)cc1 [PENTAMIDINE HYDROCHLORIDE]
2. Cl.c1cc(C2=NCCN2)ccc1OCCSCCOc1ccc(C2=NCCN2)cc1
3. Cl.N=C(N)c1ccc(SCCOCCSc2ccc(C(=N)N)cc2)cc1

Ans:
1: 140; 2: 1960; 3: 130
